system: HCV replicon; test: HCV replicon system in Huh7 cells, replicon RNA by Q-RT-PCR (HCV ΔCt, ΔΔCt); format: cell-based, hepatitis C virus; settings: Table 25; HCV RNA ΔCt minus rDNA ΔCt
Some compounds, each annotated with its measured average ΔΔCt.
Parameter Measured: average ΔΔCt

| Compound | Study System | Measured Result |
| --- | --- | --- |
| Nc1nc(=O)n([C@@H]2O[C@H](CO)[C@@H](O)[C@@H]2Br)cc1I | HCV replicon | 1.64 |
| Nc1nc(=O)n([C@@H]2O[C@H](CO)[C@@H](O)[C@H]2O)cc1F | HCV replicon | 2.73 |
| Nc1ccn([C@@H]2O[C@H](CO)[C@@H](O)[C@@H]2Cl)c(=O)n1 | HCV replicon | 1.88 |
| Nc1ccn([C@@H]2O[C@H](CO)C[C@H]2O)c(=O)n1 | HCV replicon | 2.33 |
| O=c1nc(NO)c(Br)cn1[C@@H]1O[C@H](CO)[C@@H](O)[C@H]1O | HCV replicon | 1.16 |
| Nc1nc(=O)n([C@@H]2C=C(CO)[C@@H](O)[C@H]2O)cc1F | HCV replicon | 0.40 |
| [2H]c1c(N)nc(=O)n([C@@H]2O[C@H](CO)[C@@H](O)[C@@H]2O)c1[2H] | HCV replicon | 2.26 |
| Nc1nc(F)nc2c1ncn2[C@@H]1C=C[C@H](CO)O1 | HCV replicon | 3.41 |
| O=c1nc(NO)ccn1[C@@H]1O[C@H](CO)[C@@H](O)[C@H]1O | HCV replicon | 4.45 |
| Nc1nc(=O)n([C@@H]2O[C@H](CO)[C@@H](O)[C@@H]2O)cc1F | HCV replicon | 1.02 |
| Nc1nc(=O)n(C2OC(CO)C(Br)C2O)cc1F (stereo not shown) | HCV replicon | 1.43 |
| Nc1nc(F)nc2c1ncn2[C@@H]1CS[C@H](CO)O1 | HCV replicon | 3.54 |
| Nc1nc(=O)n(C2CSC(CO)O2)cc1F (stereo not shown) | HCV replicon | 2.45 |
| Nc1ccn([C@@H]2O[C@H](CO)[C@@H](O)[C@@H]2O)c(=O)n1 | HCV replicon | 1.88 |
| Nc1ccn([C@@H]2C=C(CO)[C@@H](O)[C@H]2O)c(=O)n1 | HCV replicon | 3.16 |
| Nc1cn([C@@H]2O[C@H](CO)[C@@H](O)[C@H]2O)c(=O)nc1N | HCV replicon | 3.53 |
| CC(=O)O[C@H]1[C@@H]2Oc3nc(=N)ccn3[C@@H]2O[C@@H]1CO | HCV replicon | 1.46 |
| CS(=O)(=O)OC1C(CO)OC(n2ccc(N)nc2=O)C1O (stereo not shown) | HCV replicon | 0.79 |
| OC[C@H]1O[C@@H](n2cnc3c(Cl)ncnc32)[C@H](O)[C@@H]1O | HCV replicon | 2.14 |

====

Catalogue of compounds with associated EC50
tested on: Influenza B; assay: microbe, parasite or virus in culture; type: cell-based; conditions: Initial Test, CPE Inhibition (Visual)

| Compound | Study System | EC50 [µM] |
| --- | --- | --- |
| O=c1nc(NO)ccn1[C@@H]1O[C@H](CO)[C@@H](O)[C@H]1O [β-D-BS] | Influenza B | 0.5 |
| OC[C@H]1O[C@@H](n2cnc3c(Cl)ncnc32)[C@H](O)[C@@H]1O [β-D-DJ] | Influenza B | 50 |
| Nc1ccn([C@@H]2O[C@H](CO)C[C@H]2O)c(=O)n1 [β-D-AJ] | Influenza B | 150 |

====

# pEC50 per entry
tested on: Respiratory Syncytial Virus A; assay: microbe, parasite or virus in culture; type: cell-based; settings: Initial Test, Neutral Red
pEC50: −log10 of the molar value.
Parameter Measured: pEC50

| Smiles Input | Study System | Measured Result |
| --- | --- | --- |
| OC[C@H]1O[C@@H](n2cnc3c(Cl)ncnc32)[C@H](O)[C@@H]1O | Respiratory Syncytial Virus A | < 3.30 |
| Nc1ccn([C@@H]2O[C@H](CO)C[C@H]2O)c(=O)n1 | Respiratory Syncytial Virus A | < 3.30 |
| O=c1nc(NO)ccn1[C@@H]1O[C@H](CO)[C@@H](O)[C@H]1O | Respiratory Syncytial Virus A | > 6.30 |

====

tested on: human malignant T and B cells and various tumor cell lines; assay: Toxicity profile against human malignant T and B cells and various tumor cell lines (MTT, IC50); format: cell-based; conditions: HEPG2 (human liver carcinoma cell line); MTT assay, 3-5 days; read-out: Toxicity IC50
pIC50: −log10 of the molar value.
Parameter Measured: pIC50

| Molecule | Sign | Measured Result |
| --- | --- | --- |
| Nc1nc(=O)n([C@@H]2C[C@H](CO)[C@@H](O)[C@H]2O)cc1F [β-D-GA] | < | 4.00 |
| O=c1[nH]cc(F)c(=O)[nH]1 [5FU] | = | 4.39 |

====

test system: HCV replicon; test: HCV replicon system in Huh7 cells, replicon RNA by Q-RT-PCR (HCV ΔCt, ΔΔCt); type: cell-based, hepatitis C virus; details: Table 24; HCV RNA ΔCt minus rRNA ΔCt

| Smiles Input | Ave. ΔΔCt |
| --- | --- |
| O=C(Nc1nc(=O)n([C@H]2C=C[C@@H](CO)O2)cc1F)c1ccccc1[N+](=O)[O-] | 1.90 |
| Nc1nc(=O)n([C@@H]2O[C@H](CO)[C@@H](O)[C@@H]2Br)cc1I | 2.15 |
| OC[C@@H]1C=C(F)[C@H](n2cnc3c(Cl)ncnc32)O1 | 1.44 |
| Nc1nc(=O)c([C@@H]2O[C@H](CO)[C@@H](O)[C@H]2O)c[nH]1 | 1.12 |
| O=c1nc(NO)c(F)cn1[C@@H]1O[C@H](CO)[C@@H](O)[C@H]1O | 1.24 |

====

IC50 reference
System: human malignant T and B cells and various tumor cell lines
Experiment: Toxicity profile against human malignant T and B cells and various tumor cell lines (MTT, IC50)
Assay type: cell-based
Settings: SK-MEL-28 (human melanoma cell line); MTT assay, 3-5 days; read-out: Toxicity IC50
Description: Cytotoxicity testing as performed here are standard techniques. […] Cell viability and mitochondrial activity are measured by adding the MTT-dye (Promega), followed by eight hours of incubation. […] Finally, absorbance is read at 570 nm. […] In order to explore the complete potential of this compound, a set of human malignant T and B cells and various tumor cell lines were incubated with […] at varying concentrations, and after the absorbance was read, an IC50 value was calculated. […]

| Smiles Input | Endpoint Unit | Sign | IC50 |
| --- | --- | --- | --- |
| O=c1[nH]cc(F)c(=O)[nH]1 | µM | = | 11.2 |
| Nc1nc(=O)n([C@@H]2C[C@H](CO)[C@@H](O)[C@H]2O)cc1F | µM | > | 100 |

====

test system: rRNA (host RNA polymerase I product); test: rRNA ΔCt in Huh7 replicon cells (effect on host RNA polymerases); details: Table 24, average of n

| Compound | Ave. rRNA ΔCt |
| --- | --- |
| OC[C@@H]1C[C@H](F)[C@H](n2cnc3c(Cl)ncnc32)O1 [β-D-DH] | 2.91 |
| N=c1nc2n(cc1F)[C@@H]1O[C@H](CO)[C@@H](O)[C@@H]1O2 [β-D-MF] | 2.69 |
| Nc1ncnc2c([C@@H]3O[C@H](CO)[C@@H](O)[C@H]3O)cnn12 [β-D-UA] | 1.61 |

====

Tested on: CEM cells
Experiment: cells
Assay type: cell-based, human
Conditions: Homo sapiens, CCRF-CEM, read-out: Toxicity IC50
Description: The cytotoxicity testing as performed herein is a standard technique. […] After three (Vero cells), or four (CEM cells), or five (PBM cells) day-incubation, cell viability and mitochondrial activity are measured by adding the MTT-dye (Promega), followed by a 8 hours incubation. […] Finally, absorbance is read at 570 nm. […]
Parameter Measured: IC50 (nM)

| Compound | Study System | Parameter Measured | Endpoint Unit | Measured Result |
| --- | --- | --- | --- | --- |
| C[C@@H]1C[C@@H]([C@H](O)CC2CC(=O)NC(=O)C2)C(=O)[C@@H](C)C1 [cyclo-heximide] | CEM cells | IC50 | nM | 100 |

====

system: rRNA (host RNA polymerase I product); test: rRNA ΔCt in Huh7 replicon cells (effect on host RNA polymerases); details: Table 24, average of n
Binary call on Ave. rRNA ΔCt: criterion met from 2 upward, criterion not met beneath that.

| Compound | Assigned Category |
| --- | --- |
| Nc1ccn([C@@H]2O[C@H](CO)[C@H](Br)[C@H]2O)c(=O)n1 | criterion met |
| O=c1nc(NO)c(I)cn1[C@@H]1O[C@H](CO)[C@@H](O)[C@H]1O | criterion not met |
| Nc1nc(=O)n(C2CSC(CO)O2)cc1F (centres unmarked) | criterion met |
| Nc1nc(=O)n([C@@H]2O[C@H](CO)[C@@H](O)[C@@H]2Br)cc1I | criterion not met |
| Nc1nc(=O)n([C@@H]2O[C@H](CO)[C@@H](O)[C@H]2O)cc1F | criterion met |
